Target: T1, recombinant human ErbB3 monomeric protein (cleaved rhErbB3) (human, UniProt P21860 20-643, limits assumed)
T1 construct: Monomer made by protease cleavage of the Fc fusion; also called Monomeric ErbB3
Test: SPR Biacore 37 C; supernatant antibody captured on anti-human Fc, cleaved rhErbB3 injected
Protocol: The analyses were performed at 37° C. using PBS (Invitrogen, Catalog No. 14040-133) containing 0.05% surfactant P20 (Biacore, Catalog No. BR-1000-54) as running buffer. The antibodies were captured in individual flow cells at a flow rate of 60 l/minute. […] The dissociation phase was monitored for up to 1200 seconds. […] Kinetic parameters were determined using the kinetic function of the BIAevaluation software (Biacore) with double reference subtraction. […]
VALUE_TYPE: pKd
// returns pKd (minus log10 of molar concentration), number only

Query: Endpoint output: pKd of Sh24C05-16 (antibody, human IgG1, kappa, V domains shown, Humanized, human IgG1/kappa) VH: EVQLLESGGGLVQPGGSLRLSCAASGFTFSDYAMSWVRQAPGKGLEWVSTISDGGTYTYYPDNVKGRFTISRDNSKNTLYLQMNSLRAEDTAVYYCAREWGDYDGFDYWGQGTLVTVSS VL: DIQMTQSPSSLSASVGDRVTITCRASQEISGYLSWLQQKPGGAIKRLIYAASTLDSGVPSRFSGSGSGSDYTLTISSLQPEDFATYYCLQYDSYPYTFGQGTKLEIKR . Value?
Response: 9.83
